- System: umbrella sedge (Cyperus difformis)
- assay-method-text: Test B flooded paddy test
- Format: in vivo
- stated-conditions: Flood (flooded paddy test), 125 g ai/ha; scale 0 to 100, 0 is no effect, 100 is complete control; 13 to 15 days
- Excerpt: Plant species in the flooded paddy test consisted of rice (Oryza sativa), umbrella sedge (Cyperus difformis), ducksalad (Heteranthera limosa) and barnyardgrass (Echinochloa crus-galli) grown to the 2-leaf stage for testing. […] Treated plants and controls were maintained in a greenhouse for 13 to 15 days, after which time all treated plants were visually evaluated and compared to controls. […]
Outcome label depends on Plant response rating, Sedge, Umbrella relative to 40: at/above gives 1 (yes), below gives 0 (no).

// known answers, use as guide
# compound, target-entity, answer-label
data = [
    ("CCCCn1c(-c2cccc(F)c2)ncc(C(=O)C2=C(O)CCCC2=O)c1=O [Compound 125]", "umbrella sedge (Cyperus difformis)", "1 (yes)"),
    ("O=C1CCCC(O)=C1C(=O)c1cnc(-c2ccccc2)n(C2CC[S+]([O-])CC2)c1=O (mixture of isomers) [Compound 168]", "umbrella sedge (Cyperus difformis)", "0 (no)"),
]

Given Cc1ccccc1-n1c(-c2cccc(Cl)c2)ncc(C(=O)C2=C(O)CCCC2=O)c1=O [Compound 36] , state whether its Plant response rating, Sedge, Umbrella is at least 40.
0 (no)

Check the entry CCCCCn1c(-c2ccccc2)ncc(C(=O)C2=C(O)CCCC2=O)c1=O [Compound 89] : does Plant response rating, Sedge, Umbrella equal or exceed 40?
1 (yes)

Form field: Plant response rating, Sedge, Umbrella at least 40? Entry: COCCOCCn1c(-c2cc(F)cc(F)c2)ncc(C(=O)C2=C(O)CCCC2=O)c1=O [Compound 171]
1 (yes)

Quick check, Plant response rating, Sedge, Umbrella >= 40? CCc1ccc(-n2c(-c3cccc(Br)c3)ncc(C(=O)C3=C(O)CCCC3=O)c2=O)cc1 [Compound 177]
1 (yes)

Is Plant response rating, Sedge, Umbrella at least 40? Consider O=C1CCCC(O)=C1C(=O)c1cnc(-c2ccsc2)n(-c2ccccc2)c1=O [Compound 56]
1 (yes)

Say whether O=C1CCCC(O)=C1C(=O)c1cnc(-c2cccc(Cl)c2)n(CC2CCCO2)c1=O (stereo not drawn) [Compound 142] shows Plant response rating, Sedge, Umbrella of 40 or more.
1 (yes)

---

# Plant response rating, Chickweed annotations
- Test system: chickweed (Stellaria media)
- assay-method-text: Test B postemergence plant response
- Format: in vivo
- stated-conditions: Postemergence, 125 g ai/ha; visual rating after 13 to 15 days, scale 0 (no effect) to 100 (complete control)
- Excerpt: […] Treated plants and controls were maintained in a greenhouse for 13 to 15 days, after which time all treated plants were visually evaluated and compared to controls. […]
I'd appreciate a reply containing only the number, no unit.

# molecule, Plant response rating, Chickweed
measured = [
    ("Cc1cc(-n2c(-c3ccccc3)ncc(C(=O)C3=C(O)CCCC3=O)c2=O)ccc1F [Compound 53]", 98),
    ("Cc1ccc(-c2ncc(C(=O)C3=C(O)CCCC3=O)c(=O)n2-c2ccccc2)cc1 [Compound 80]", 100),
]

Identify measured Plant response rating, Chickweed corresponding to Cc1ccc(F)cc1-n1c(-c2ccccc2)ncc(C(=O)C2=C(O)CCCC2=O)c1=O [Compound 44]
98

Fill in reported Plant response rating, Chickweed for this entry: CCCc1ncc(C(=O)C2=C(O)CCCC2=O)c(=O)n1-c1ccccc1C [Compound 73]
95

Give reported Plant response rating, Chickweed value for O=C1CCCC(OC(=O)C2CC2)=C1C(=O)c1cnc(-c2ccccc2)n(-c2ccccc2)c1=O [Compound 88]
95

State its Plant response rating, Chickweed for this molecule: CCCCc1ncc(C(=O)C2=C(O)CCCC2=O)c(=O)n1-c1cccc(C)c1 [Compound 63]
80
